Origin of the recorded values: patent US20140120095A1

- TARGET: T1, human DLL4 expressed on cells (CHO-hDLL4; HEK293-hDLL4) (human, UniProt Q9NR61 27-685)
- T1 construct: full length human DLL4 overexpressed on CHO cells (FMAT, FACS) or HEK293 cells (reporter assay)
- PROCEDURE_TEXT: competition FMAT, labelled hNotch1-Fc on CHO-hDLL4 cells
MEASUREMENT_TYPE: IC50 (nM)

INSERT INTO results (binder, measurement_type, recorded_measurement) VALUES
  ('DLLBII136C07 (VHH, not shown: small tags and cut ends) VHH: EVQLVESGGGLVQPGGSLRLSCAASGFTFGSYDMSWVRRSPGKGPEWVSSINSGGGSTYYADYVKGRFTISRDNAKNTLYLQMNSLKPEDTAVYYCAADRYIWARQGEYWGAYEYDYWGQGTQVTVSS', 'IC50', 11.4),
  ('DLLBII039 (VHH, not shown: small tags and cut ends) VHH: EVQLVESGGGLVQPGGSLRLSCAASGFTIGSYDMSWVRRAPGKGPEWVSSISSGGGSTYYADYVKGRFTISRDNAKNTLYLQMNSLRPEDTAVYYCAADRYIWARQGEYWGAYEYDYWGQGTLVTVSS', 'IC50', 6.2),
  ('DLLBII018 (VHH, not shown: small tags and cut ends) VHH: EVQLVESGGGLVQPGGSLRLSCAASGRTFSSYAMAWYRQAPGKEREYVAAIRWSGGTAYYADSVKGRFTISRDNAKNTVYLQMNSLRPEDTAVYYCANRAPDTRLAPYEYDHWGQGTLVTVSS', 'IC50', 11),
  ('DLLBII036 (VHH, not shown: small tags and cut ends) VHH: EVQLVESGGGLVQPGGSLRLSCAASGFTFGSYDMSWVRRAPGKGPEWVSSISSGGGSTYYADYVKGRFTISRDNAKNTLYLQMNSLRPEDTAVYYCAADRYIWARQGEYWGAYEYDYWGQGTLVTVSS', 'IC50', 9.7),
  ('DLLBII129B05 (VHH, not shown: small tags and cut ends) VHH: EVQLVESGGGLVQAGGSLRLSCAASGRTFSSYAMAWYRQAPGKEREYVAAIRWSGGTAYYADSVQGRFTISRDNAKNTVYLQMNSLKPEDTAVYYCANRAPDTRLAPYEYDHWGQGTQVTVSS', 'IC50', 8.2);
